Observed IC50 for UniProtKB O60341, reported per entry below.
Field format: number, assumed nM, no unit text.

Worked set:
[[record]]
compound = "COC(=O)[C@H](O)CC(=O)OCCc1ccc(O)c(O)c1 [OLP, oleohydroxypyretol]"
readout_number = 800

[[record]]
compound = "OCCc1ccc(O)c(O)c1 [HT, hydroxytyrosol]"
readout_number = 39


Now take the following compound into account.
Inquiry: Fill blank: measured IC50 of the compound CC(=O)OCCc1ccc(O)c(O)c1 [HTA, hydroxytyrosol acetate] is ____.
Reply text: 1100

* * *

Below, each entry is listed alongside its reported IC50.
Sequence of the target: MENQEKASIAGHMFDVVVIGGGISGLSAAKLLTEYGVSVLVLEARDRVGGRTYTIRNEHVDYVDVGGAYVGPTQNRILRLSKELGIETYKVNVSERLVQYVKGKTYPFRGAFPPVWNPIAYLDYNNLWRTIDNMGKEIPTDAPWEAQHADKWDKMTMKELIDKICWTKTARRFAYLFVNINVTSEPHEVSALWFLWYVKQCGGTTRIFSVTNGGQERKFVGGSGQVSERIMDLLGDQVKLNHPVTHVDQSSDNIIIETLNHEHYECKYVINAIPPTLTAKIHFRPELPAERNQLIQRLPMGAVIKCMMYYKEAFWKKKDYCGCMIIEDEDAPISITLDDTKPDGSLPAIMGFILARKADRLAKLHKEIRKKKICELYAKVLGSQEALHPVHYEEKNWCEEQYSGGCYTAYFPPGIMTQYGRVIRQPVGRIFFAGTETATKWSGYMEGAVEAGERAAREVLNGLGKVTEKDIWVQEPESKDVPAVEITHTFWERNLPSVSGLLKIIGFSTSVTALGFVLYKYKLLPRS
Unit nM implied. Number only.

[[record]]
compound = "OCCc1ccc(O)c(O)c1 [HT, hydroxytyrosol]"
readout_number = 430

[[record]]
compound = "CC(=O)OCCc1ccc(O)c(O)c1 [HTA, hydroxytyrosol acetate]"
readout_number = 700

[[record]]
compound = "COC(=O)[C@H](O)CC(=O)OCCc1ccc(O)c(O)c1 [OLP, oleohydroxypyretol]"
readout_number = 850


--- query ---
Inquiry: // IC50 lookup, key: C/C=C(/C=O)[C@@H](CC=O)CC(=O)OCCc1ccc(O)cc1 [OLC, oleocanthal]
Reply text: 1900
